From: ChEMBL document CHEMBL3885861

# Organism: Rattus norvegicus
# TEST NAME: Open TG-GATES - Regimen: Single
# Type: toxicity, organism-based, Sprague-Dawley
# Parameters: regimen Single, gender Male, age 6 weeks
# CONDITION SET: in vivo, po, 10 mg/kg, 6 h, tissue Plasma, route gavage, dose level Low
TG values for the compounds below.

| COMPOUND | TG / mg/dL |
| --- | --- |
| CN(C)CCCN1c2ccccc2CCc2ccc(Cl)cc21 | 52.2 |
| CN(C)CCN(Cc1cccs1)c1ccccn1 | 63.6 |
| CC(C)OC(=O)C(C)(C)Oc1ccc(C(=O)c2ccc(Cl)cc2)cc1 [FENOFIBRATE] | 36.8 |
| CC1=C(/C=C/C(C)=C/C=C/C(C)=C/CO)C(C)(C)CCC1 | 98.4 |

###

# Organism: Rattus norvegicus
# TEST NAME: Open TG-GATES - Regimen: Daily Repeat
# Type: toxicity, organism-based, Sprague-Dawley
# Design: regimen Daily Repeat, gender Male, age 6 weeks
# CONDITION SET: in vivo, po, 1000 mg/kg, […], tissue Blood, route gavage, dose level High, time 28 day
VALUE TYPE: MCHC (%)

| COMPOUND | UNITS SYMBOL | ASSAY VALUE |
| --- | --- | --- |
| CCOC(=O)CCC(=O)O[C@H]1[C@H](O[C@@H]2[C@@H](C)[C@H](O[C@H]3C[C@@](C)(OC)[C@@H](O)[C@H](C)O3)[C@@H](C)C(=O)O[C@H](CC)[C@@](C)(O)[C@H](O)[C@@H](C)C(=O)[C@H](C)C[C@@]2(C)O)O[C@H](C)C[C@@H]1N(C)C [ERYTHROMYCIN ETHYLSUCCINATE] | % | 34.7 |
| NC(N)=Nc1nc(CSCCC(N)=NS(N)(=O)=O)cs1 | % | 35.6 |
| CCOc1ccc(NC(=O)CC(C)O)cc1 (stereo unspecified) | % | 34 |
| CC(C)OC(=O)C(C)(C)Oc1ccc(C(=O)c2ccc(Cl)cc2)cc1 [FENOFIBRATE] | % | 33.4 |
| COC1=CC(=O)C[C@@H](C)[C@]12Oc1c(Cl)c(OC)cc(OC)c1C2=O | % | 33.9 |
| COc1ccc2[nH]c([S+]([O-])Cc3ncc(C)c(OC)c3C)nc2c1 (stereo unspecified) | % | 33.7 |

###

# Species: Rattus norvegicus
# TEST NAME: Open TG-GATES - Regimen: Single
# Type: toxicity, organism-based, Sprague-Dawley
# Design: regimen Single, gender Male, age 6 weeks
# CONDITION SET: in vivo, po, 0 mg/kg, 3 h, tissue Plasma, route gavage, dose level Control
# gamma-GTP annotations
VALUE TYPE: gamma-GTP

| MOLECULE | ASSAY VALUE |
| --- | --- |
| CN(C)CCCN1c2ccccc2CCc2ccc(Cl)cc21 [CLOMIPRAMINE] | 1 IU/L |
| NNC(=O)c1ccncc1 [ISONIAZID] | 1.2 IU/L |
| CCCNC(=O)NS(=O)(=O)c1ccc(Cl)cc1 [CHLORPROPAMIDE] | 1.4 IU/L |
| CC/C(=C(\c1ccccc1)c1ccc(OCCN(C)C)cc1)c1ccccc1 [TAMOXIFEN] | 1.4 IU/L |
| C[C@@H]1C[C@H]2[C@@H]3CCC4=CC(=O)C=C[C@]4(C)[C@@]3(F)[C@@H](O)C[C@]2(C)[C@@]1(O)C(=O)CO [DEXAMETHASONE] | 0.8 IU/L |
| CCOC(=O)CCC(=O)O[C@H]1[C@H](O[C@@H]2[C@@H](C)[C@H](O[C@H]3C[C@@](C)(OC)[C@@H](O)[C@H](C)O3)[C@@H](C)C(=O)O[C@H](CC)[C@@](C)(O)[C@H](O)[C@@H](C)C(=O)[C@H](C)C[C@@]2(C)O)O[C@H](C)C[C@@H]1N(C)C [ERYTHROMYCIN ETHYLSUCCINATE] | 1 IU/L |
| CN1C(=O)CN=C(c2ccccc2)c2cc(Cl)ccc21 [DIAZEPAM] | 1.8 IU/L |
| CC1=C(/C=C/C(C)=C/C=C/C(C)=C/CO)C(C)(C)CCC1 [RETINOL] | 2.8 IU/L |
